- Protocol: Octanol/water partition coefficient determination
- Format: physicochemical
- Measurement Conditions: pH 7.4, read-out: logD7.4
Readout Name: logD
Numbers only.

CNC(=O)c1cc(N2CCS(=O)(=O)CC2)ccc1Nc1nc(Nc2ccc(OCCOCCOCC[18F])c(-c3cnn(C)c3)c2)ncc1Br [[^18F]7c]	0.74

Below: the item to evaluate.
Find the recorded logD belonging to CNC(=O)c1cc(N2CCS(=O)(=O)CC2)ccc1Nc1nc(Nc2ccc(OCCOCCOCC[18F])cc2)ncc1Br [[^18F]7a] and report it. 0.96

###

Record: IC50 reported on FAK (Homo sapiens, UniProt Q05397).
Sequence (Q05397 whole entry, species assumed): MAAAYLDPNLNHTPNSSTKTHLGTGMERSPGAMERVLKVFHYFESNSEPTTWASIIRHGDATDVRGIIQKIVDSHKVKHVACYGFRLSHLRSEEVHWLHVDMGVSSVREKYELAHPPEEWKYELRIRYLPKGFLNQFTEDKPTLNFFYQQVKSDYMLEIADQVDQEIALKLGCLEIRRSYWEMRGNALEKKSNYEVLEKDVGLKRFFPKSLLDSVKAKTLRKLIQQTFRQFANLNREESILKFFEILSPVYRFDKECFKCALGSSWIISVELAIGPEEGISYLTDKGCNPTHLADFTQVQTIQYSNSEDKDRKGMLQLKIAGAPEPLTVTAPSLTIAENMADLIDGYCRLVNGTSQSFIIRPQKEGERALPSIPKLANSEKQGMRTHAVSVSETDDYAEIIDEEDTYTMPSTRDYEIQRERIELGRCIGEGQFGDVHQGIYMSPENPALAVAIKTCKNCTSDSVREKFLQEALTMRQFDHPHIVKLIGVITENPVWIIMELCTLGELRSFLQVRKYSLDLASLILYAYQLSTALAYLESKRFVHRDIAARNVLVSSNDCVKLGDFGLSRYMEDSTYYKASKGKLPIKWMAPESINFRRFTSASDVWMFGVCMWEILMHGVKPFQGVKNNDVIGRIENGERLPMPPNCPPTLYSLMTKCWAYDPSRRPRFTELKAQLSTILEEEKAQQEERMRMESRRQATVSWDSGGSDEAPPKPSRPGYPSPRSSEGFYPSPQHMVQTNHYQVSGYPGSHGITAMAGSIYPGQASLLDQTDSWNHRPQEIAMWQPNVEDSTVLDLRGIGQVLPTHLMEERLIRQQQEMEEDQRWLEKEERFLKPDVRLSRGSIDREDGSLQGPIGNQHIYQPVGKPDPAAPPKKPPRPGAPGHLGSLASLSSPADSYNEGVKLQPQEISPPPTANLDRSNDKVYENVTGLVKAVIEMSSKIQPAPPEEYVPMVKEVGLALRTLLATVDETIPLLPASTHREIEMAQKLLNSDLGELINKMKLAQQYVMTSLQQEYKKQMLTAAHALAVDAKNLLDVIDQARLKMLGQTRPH
Returns: string containing the number followed by the unit.

CNC(=O)c1cc(N2CCS(=O)(=O)CC2)ccc1Nc1nc(Nc2ccc(OCCOCCOCCF)c(C(=O)N3CCN(C(C)=O)CC3)c2)ncc1Br	24.6 nM

Find the recorded IC50 belonging to CNC(=O)c1cc(N2CCOCC2)ccc1Nc1nc(Nc2ccc(OCCOCCOCCF)c(C(=O)N3CCN(C(C)=O)CC3)c2)ncc1Br and report it. 10 nM
